Reported LD50 is given for each of the following compounds.
Assay: LD50 mouse (male)
Conditions: in vivo
Description: Examples of the compounds represented by the general formula [1] according to this invention and their toxicities are shown below.

| compound | LD50 |
| --- | --- |
| CC(C)OC(=O)C(C(=O)OC(C)C)=C1SCCS1 [compound 6] | 1350 mg/kg |
| CC(C)OC(=O)C(C(=O)OC(C)C)=C1SC(C(=O)O)S1 (stereo not shown) | > 5000 mg/kg |

**Query** Which LD50 reading was recorded for the compound CCOC(=O)C(C(=O)OCC)=C1SC=CS1 [compound 5] ?
**Result** 4900 mg/kg

**Query** Which LD50 reading was recorded for the compound CC(C)OC(=O)C(C(=O)OC(C)C)=C1SCS1 [compound 1] ?
**Result** > 5000 mg/kg

**Query** Which LD50 reading was recorded for the compound CCOC(=O)C(C(=O)OC(C)C)=C1SCS1 [compound 2] ?
**Result** > 5000 mg/kg

**Query** Which LD50 reading was recorded for the compound CC(C)OC(=O)C(C(=O)OC(C)C)=C1SCC[S+]1[O-] (stereo not shown) [compound 7] ?
**Result** > 6000 mg/kg

**Query** Which LD50 reading was recorded for the compound CC(C)OC(=O)C(C(=O)OC(C)C)=C1SCC(O)S1 (stereo not shown) [compound 8] ?
**Result** > 6590 mg/kg

Origin of measurements: patent US4564627A
